# measured_target: PIM1 (Homo sapiens (Human), UniProt P11309)
# Sequence (P11309 whole entry): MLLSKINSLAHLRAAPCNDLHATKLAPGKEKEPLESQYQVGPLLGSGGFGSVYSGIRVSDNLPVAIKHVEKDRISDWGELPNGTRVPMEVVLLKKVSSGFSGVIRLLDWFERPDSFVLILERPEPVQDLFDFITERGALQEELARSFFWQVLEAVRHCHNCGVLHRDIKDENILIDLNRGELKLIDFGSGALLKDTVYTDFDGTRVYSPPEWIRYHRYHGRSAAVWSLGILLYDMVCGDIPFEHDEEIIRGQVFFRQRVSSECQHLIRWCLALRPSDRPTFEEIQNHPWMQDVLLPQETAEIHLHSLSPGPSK
# assay_notes: biochemical
# Format: biochemical
The molecules listed here are annotated with their Ki.
Answer in nM, number only, no unit symbol.

Example results:
>>> readout_value("Cn1ncc(NC(=O)c2csc(-c3c(F)cc(C(O)C4CC4)cc3F)n2)c1[C@@H]1CC[C@@H](N)[C@H](F)CO1 (stereo partly drawn)")
0.037
>>> readout_value("[2H]C([2H])([2H])O[C@@H]1CO[C@H](c2c(NC(=O)c3nc(-c4c(F)cccc4F)sc3N)cnn2C)CC[C@H]1N")
0.135

Below: the item to evaluate.
get_value(item= `[2H]C([2H])([2H])O[C@H]1CO[C@@H](c2c(NC(=O)c3nc(-c4c(F)cccc4F)sc3N)cnn2C)CC[C@@H]1N` , readout=Ki) returns 0.017

---

# System: MM1.S (multiple myeloma) cells
# assay_notes: In vitro cell proliferation, MM1.S multiple myeloma cells;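 note: cells cultured in RPMI with 10% FBS and 2 mM L-Glutamine, seeded in 384-well plates, exposed to compound, cell viability measured by luminescence after CellTiter-Glo addition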
# Format: cell-based
# measurement_conditions: Homo sapiens, MM1.S, 72 h, MM1.S cells, 72 hours, CELL TITER GLO; read-out: Prolif MM1S ATP (EC50)
pEC50: −log10 of the molar value.
Lab note: anything with pEC50 at or over 6 counts as MET; the rest go in NOT MET.

Solved cases (5 shown):
>>> group_label("Cc1[nH]nc(-c2nc(C(=O)Nc3cnn(C)c3[C@@H]3CC[C@@H](N)[C@H](F)CO3)cs2)c1C")
"NOT MET"
>>> group_label("C[C@@H](O)c1ccc(-c2nc(C(=O)Nc3cnn(C)c3[C@@H]3CC[C@@H](N)[C@H](F)CO3)cs2)c(F)c1F (single isomer, unassigned)")
"NOT MET"
>>> group_label("Cn1ncc(NC(=O)c2nc(-c3c(F)cccc3F)sc2N)c1[C@H]1CC[C@@H](N)C(F)CO1 (stereo in doubt)")
"NOT MET"
>>> group_label("C[C@H](O)c1ccc(-c2nc(C(=O)Nc3cnn(C)c3[C@@H]3CC[C@@H](N)[C@H](F)CO3)cs2)c(F)c1F (single isomer, unassigned)")
"MET"
>>> group_label("Cn1ncc(NC(=O)c2ccc(F)c(-c3ccc(Cl)cc3F)n2)c1[C@@H]1CC[C@@H](N)[C@H](F)CO1")
"NOT MET"

// query // inclusive: pEC50 at least 6? input: `Cn1ncc(NC(=O)c2csc(-c3n[nH]c4ccccc34)n2)c1[C@@H]1CC[C@@H](N)[C@H](F)CO1`
// result MET

// query // inclusive: pEC50 at least 6? input: `Cn1ncc(NC(=O)c2csc(-c3c(F)cc(C4(F)COC4)cc3F)n2)c1[C@@H]1CC[C@@H](N)[C@H](F)CO1`
// result NOT MET

// query // inclusive: pEC50 at least 6? input: Cn1ncc(NC(=O)c2csc(-c3c(F)cc([C@@H]4CCCO4)cc3F)n2)c1[C@@H]1CC[C@@H](N)[C@H](F)CO1 (single isomer, unassigned)
// result NOT MET

// query // inclusive: pEC50 at least 6? input: `Cn1ncc(NC(=O)c2nc(-c3c(Cl)cccc3C(F)(F)F)sc2N)c1[C@@H]1CC[C@@H](N)[C@H](F)CO1`
// result NOT MET

---

# measured_target: PIM1 (Homo sapiens (Human))
# assay_notes: biochemical
# Assay type: biochemical
# measurement_conditions: 20 pM PIM1, 1 μM FAM-peptide, 10 μM ATP, 90 minutes at room temperature; read-out: PIM1 LC3K (KI)
The compounds listed here are annotated with their log10 of Ki.
# values: log10(Ki), units nM

Example results:
>>> readout_value("Cn1ncc(NC(=O)c2nc(C3=CCCC3)sc2N)c1[C@@H]1CC[C@@H](N)[C@@H](F)CO1 [Example 271]")
-1.21
>>> readout_value("Cn1ncc(NC(=O)c2csc(-c3cc(F)cc(F)c3F)n2)c1[C@@H]1CC[C@@H](N)[C@H](F)CO1 [Example 236]")
-0.59
>>> readout_value("COc1cccc(-c2nc(C(=O)Nc3cnn(C)c3[C@@H]3CC[C@@H](N)[C@H](F)CO3)cs2)c1 [Example 357]")
-1.46
>>> readout_value("Cc1cccc(F)c1-c1nc(C(=O)Nc2cnn(C)c2[C@@H]2CC[C@@H](N)[C@H](F)CO2)cs1 [Example 315]")
-1.04
>>> readout_value("Cn1ncc(NC(=O)c2ccc(F)c(-c3c(F)cc(C(C)(C)O)cc3F)n2)c1[C@@H]1CC[C@@H](N)[C@@H](F)CO1 [Example 289]")
-1.10
>>> readout_value("Cn1ncc(NC(=O)c2ccc(F)c(-c3c(F)cccc3F)n2)c1[C@@H]1CC[C@@H](N)[C@H](F)CO1 [Example 195]")
-1.60
>>> readout_value("Cc1noc(C)c1-c1nc(C(=O)Nc2cnn(C)c2[C@@H]2CC[C@@H](N)[C@@H](F)CO2)cs1 [Example 244]")
0.78
>>> readout_value("Cc1cccc(F)c1-c1nc(C(=O)Nc2cnn(C)c2[C@@H]2CC[C@@H](N)[C@H](F)CO2)c(N)s1 [Example 330]")
-1.80
>>> readout_value("Cn1ncc(NC(=O)c2nc(-c3c(F)cccc3F)sc2N)c1C1C[C@H](N)[C@@H](F)CCO1 (some centres unmarked) [Example 130]")
-0.45
>>> readout_value("Cn1ncc(NC(=O)c2nc(-c3c(F)cccc3F)sc2N)c1C1CC[C@@H](N)[C@@H](F)CO1 (some centres unmarked) [Example 119]")
-1.68

get_value(item= CC1C(c2c(NC(=O)c3nc(-c4c(F)cccc4F)sc3N)cnn2C)OCC(C)(O)C1N (centres unmarked) [Example 142] , readout=log10 of Ki) returns -0.36

get_value(item= Cn1ncc(NC(=O)c2csc(-c3cccc4c3cnn4C)n2)c1[C@@H]1CC[C@@H](N)[C@H](F)CO1 [Example 402] , readout=log10 of Ki) returns -0.93

get_value(item= Cn1cc(-c2nc(C(=O)Nc3cnn(C)c3[C@@H]3CC[C@@H](N)[C@@H](F)CO3)cs2)c(C2CC2)n1 [Example 253] , readout=log10 of Ki) returns -0.60

get_value(item= Cn1ncc(NC(=O)c2ccc(F)c(-c3c(F)cccc3F)n2)c1[C@@H]1CC[C@@H](N)[C@H](F)CO1 [Example 397] , readout=log10 of Ki) returns -1.80
